Source of measurements: patent EP4755880A1

Items are presented alongside their recorded Selectivity PARP2/PARP1.
- target-desc: PARP1 (Homo sapiens)
- Sequence (P09874 whole entry): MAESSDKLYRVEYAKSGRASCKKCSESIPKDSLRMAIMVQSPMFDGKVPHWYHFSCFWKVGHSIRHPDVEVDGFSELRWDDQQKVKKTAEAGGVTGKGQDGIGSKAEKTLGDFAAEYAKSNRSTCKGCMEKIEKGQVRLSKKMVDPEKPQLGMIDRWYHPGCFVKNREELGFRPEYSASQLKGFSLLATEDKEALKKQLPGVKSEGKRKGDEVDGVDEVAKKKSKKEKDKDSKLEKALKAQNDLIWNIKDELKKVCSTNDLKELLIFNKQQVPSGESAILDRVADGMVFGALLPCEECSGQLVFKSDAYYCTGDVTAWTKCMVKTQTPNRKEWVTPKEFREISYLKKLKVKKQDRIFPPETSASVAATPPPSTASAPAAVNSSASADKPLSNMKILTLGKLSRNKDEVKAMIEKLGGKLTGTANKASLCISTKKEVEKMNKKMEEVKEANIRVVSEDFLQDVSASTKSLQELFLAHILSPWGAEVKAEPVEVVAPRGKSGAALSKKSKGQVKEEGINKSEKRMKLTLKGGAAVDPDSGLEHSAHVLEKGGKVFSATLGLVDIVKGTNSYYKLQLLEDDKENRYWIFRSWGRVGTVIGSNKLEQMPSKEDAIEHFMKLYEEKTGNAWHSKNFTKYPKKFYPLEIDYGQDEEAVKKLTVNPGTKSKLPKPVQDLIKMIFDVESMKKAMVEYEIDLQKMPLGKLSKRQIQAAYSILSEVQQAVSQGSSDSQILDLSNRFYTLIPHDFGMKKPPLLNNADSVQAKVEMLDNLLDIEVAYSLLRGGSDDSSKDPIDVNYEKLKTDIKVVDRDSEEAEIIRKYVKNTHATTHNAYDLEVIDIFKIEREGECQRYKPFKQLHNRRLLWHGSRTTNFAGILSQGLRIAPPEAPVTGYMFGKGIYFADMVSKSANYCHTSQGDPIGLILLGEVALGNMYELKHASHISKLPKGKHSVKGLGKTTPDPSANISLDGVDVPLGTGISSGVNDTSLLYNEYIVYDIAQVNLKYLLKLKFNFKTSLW
- method-description: Inhibition of PARP1 enzyme activity (ELISA, chemiluminescence)
- Type: biochemical
- details: ratio of PARP2 IC50 to PARP1 IC50
Write the number on its own, no unit after it.

Sample records with Selectivity PARP2/PARP1:
• CNC(=O)c1ccc(N2CCN(Cc3cc(-c4cccc(F)c4)c4nc(C)c(=O)[nH]c4c3)CC2)c(F)n1 [Example 9] = 705.3
• CNC(=O)c1ccc(N2CCN(Cc3cc(Nc4ccc(F)cc4)c4nc(C)c(=O)[nH]c4c3)CC2)c(F)n1 [Example 33] = 188.8
• Cc1nc2c(OC(F)F)cc(CN3CCN(c4ccc(C(=O)N[C@H]5C[C@H]5F)nc4F)CC3)cc2[nH]c1=O [Example 57] = 47.3
• CC#Cc1cc(CN2CCN(c3ccc(C(=O)NC4CC4)nc3F)CC2)cc2[nH]c(=O)c(C)nc12 [Example 35] = 44.3
• CNC(=O)c1ccc(N2CCN(Cc3cc(Oc4cccc(F)c4)c4nc(C)c(=O)[nH]c4c3)CC2)c(F)n1 [Example 28] = 356.3

Lab note: need Selectivity PARP2/PARP1 with PARP1 (Homo sapiens) for entry CC#Cc1cc(CN2CCN(c3ccc(OC(F)F)nc3)CC2)cc2[nH]c(=O)c(C)nc12 [Example 37] , please look it up.
148.2

Another molecule to check: CNC(=O)c1ccc(N2CCN(Cc3cc(OC(F)F)c4nc(C)c(=O)[nH]c4c3F)CC2)c(F)n1 [Example 14]
348.3

Another molecule to check: CNC(=O)c1ccc(C2=CCN(Cc3cc(C#CC4CC4)c4nc(C)c(=O)[nH]c4c3F)CC2)c(F)n1 [Example 24]
1004.6

Another molecule to check: CC#Cc1cc(CN2CC=C(c3ccc(C(=O)NC4CC4)nc3F)CC2)cc2[nH]c(=O)c(C)nc12 [Example 39]
206.8

====

- method-description: Pharmacokinetics in mice after intravenous injection or gavage
- details: BALB/c, mouse, plasma, po, 5 mg/kg
endpoint-name: AUC(0-t) (ng·h/mL)
The reply should be a number in ng·h/mL, with the unit left off.

Sample records with AUC(0-t):
• CC#Cc1cc(CN2CCN(c3ccc(C(=O)NC4CC4)nc3F)CC2)cc2[nH]c(=O)c(C)nc12 = 4860
• CC#Cc1cc(CN2CC=C(c3ccc(C(=O)NC4CC4)nc3F)CC2)c(F)c2[nH]c(=O)c(C)nc12 = 4630
• Cc1nc2c(OC(F)F)cc(CN3CCN(c4ccc(C(=O)NC5CC5)nc4F)CC3)cc2[nH]c1=O = 25300

Which measured AUC(0-t) value corresponds to `CNC(=O)c1ccc(C2=CCN(Cc3cc(OC(F)F)c4nc(C)c(=O)[nH]c4c3)CC2)c(F)n1` ?
189000

Another compound to check: `CNC(=O)c1ccc(N2CCN(Cc3cc(OC(F)F)c4nc(C)c(=O)[nH]c4c3)CC2)c(C)n1`
67100

====

- target-desc: PARP1 (Homo sapiens)
- method-description: Inhibition of PARP1 enzyme activity (ELISA, chemiluminescence)
- Type: biochemical
- details: ratio of PARP2 IC50 to PARP1 IC50
Items are presented alongside their recorded Selectivity PARP2/PARP1.

• CC#Cc1cc(CN2CCN(c3ccc(C(=O)NC4CC4)nc3F)CC2)c(F)c2[nH]c(=O)c(C)nc12 [Example 47] = >1456.3
• CNC(=O)c1ccc(N2CCN(Cc3cc(Oc4ccc(C#N)cc4)c4nc(C)c(=O)[nH]c4c3)CC2)c(F)n1 [Example 32] = >833

We now examine a further compound.
Which measured Selectivity PARP2/PARP1 value corresponds to CC#Cc1cc(CN2CC=C(c3ccc(C(=O)NC4CC4)nc3)CC2)c(F)c2[nH]c(=O)c(C)nc12 [Example 67] ?
>1444
